Value source: ChEMBL document CHEMBL1145933

Values of IC50 reported for Somatostatin receptor type 2 (Homo sapiens, UniProt P30874) appear below.

// solved cases for IC50 follow
compound: C[C@@H](O)[C@@H]1NC(=O)[C@H](CCCCN)NC(=O)[C@@H](Cc2c[nH]c3ccccc23)NC(=O)[C@H](Cc2ccccc2)NC(=O)[C@H](Cc2ccccc2)NC(=O)[C@@H](N)CSSC[C@@H](C(=O)O)NC(=O)[C@@H](N(C)C(=O)c2ccccc2)NC1=O
IC50: > 1 µM

compound: C[C@@H](O)[C@@H]1NC(=O)[C@@H](NC(=O)CCN)NC(=O)[C@@H](Cc2c[nH]c3ccccc23)NC(=O)[C@H](Cc2ccccc2)NC(=O)[C@H](Cc2ccccc2)NC(=O)[C@@H](N)CSSC[C@@H](C(=O)O)NC(=O)[C@H](Cc2ccccc2)NC1=O (stereo in doubt; 17)
IC50: > 1 µM

Now consider the entry below.
Memo: C[C@@H](O)[C@@H]1NC(=O)[C@H](CCCCN)NC(=O)[C@@H](Cc2c[nH]c3ccccc23)NC(=O)[C@H](N(C)C(=O)c2ccccc2)NC(=O)[C@H](Cc2ccccc2)NC(=O)[C@H](N)CSSC[C@@H](C(=O)O)NC(=O)[C@H](Cc2ccccc2)NC1=O (stereo in doubt; 10) , reported IC50: 0.533 µM
